Listed next: entries and their corresponding log10 Kn.
Test system: Nucleic Acid
Assay: DNA binding property and activity expressed as Kn
Type: nucleic-acid assay
log10 Kn, M⁻¹

{"columns": ["compound", "value"],
 "data": [
  ["CN(C)CCNC(=O)Cc1cc(O)c2c(c1O)C(=O)c1ccccc1C2=O.Cl", 4.88],
  ["CN(C)CCCNC(=O)c1ccc2c(c1)C(=O)c1ccccc1C2=O.Cl", 4.04],
  ["CCN(CC)CCNC(=O)Cc1cc(O)c2c(c1O)C(=O)c1ccccc1C2=O.Cl", 5.00],
  ["CCN(CC)CCCC(C)NC(=O)c1ccc2c(c1O)C(=O)c1ccccc1C2=O.Cl (stereo not given)", 4.00],
  ["CCN(CC)CCCNC(=O)Cc1cc(O)c2c(c1O)C(=O)c1ccccc1C2=O.Cl", 4.46]
]}

// log10 Kn lookup, key: CCN(CC)CCCC(C)NC(=O)Cc1cc(O)c2c(c1O)C(=O)c1ccccc1C2=O.Cl (stereo not given) 4.69

// log10 Kn lookup, key: CCN(CC)CCCNC(=O)c1ccc2c(c1O)C(=O)c1ccccc1C2=O 4.11

// log10 Kn lookup, key: CN(C)CCCNC(=O)c1ccc2c(c1O)C(=O)c1ccccc1C2=O.Cl 3.97

// log10 Kn lookup, key: CCN(CC)CCNC(=O)c1ccc2c(c1O)C(=O)c1ccccc1C2=O 3.96

// log10 Kn lookup, key: CN(C)CCCNC(=O)Cc1cc(O)c2c(c1O)C(=O)c1ccccc1C2=O.Cl 4.81

----------
System: Nucleic Acid
Assay: DNA binding property and activity expressed as K
Type: nucleic-acid assay
Please mark label 1 if the recorded K is equal to or greater than 300000 M⁻¹, and label 0 if it falls below.

Illustrative cases are given below, each with its answer.
{"columns": ["test.smiles", "group.label"],
 "data": [
  ["CCN(CC)CCCNC(=O)Cc1cc(O)c2c(c1O)C(=O)c1ccccc1C2=O.Cl", "label 0"],
  ["CN(C)CCCNC(=O)c1ccc2c(c1)C(=O)c1ccccc1C2=O.Cl", "label 0"],
  ["CN(C)CCCNC(=O)Cc1cc(O)c2c(c1O)C(=O)c1ccccc1C2=O.Cl", "label 0"]
]}

# bool: K of CCN(CC)CCNC(=O)Cc1cc(O)c2c(c1O)C(=O)c1ccccc1C2=O.Cl >= 300000 M⁻¹ label 1
